Recorded values, source paper PMC5656653.

Experiment: Biodistribution experiments in normal mice after i.v. injection
Format: in vivo
Conditions: male, ddY, mouse, in vivo, iv, total radioactivity, Biodistribution of radioactivity, Bone (Femur)
Property Label: tissue uptake dose at 3 h (%ID)
The figure you give is taken to be in %ID; do not add the unit.

Asked: What value of tissue uptake dose at 3 h has been recorded for this entry: O=C(O)CC[C@H](NC(=O)[C@H](CCC(=O)O)NC(=O)[C@H](CCC(=O)O)NC(=O)[C@H](CCC(=O)O)NC(=O)[C@H](CCC(=O)O)NC(=O)[C@H](CCC(=O)O)NC(=O)[C@H](CCC(=O)O)NC(=O)[C@H](CCC(=O)O)NC(=O)[C@H](CCC(=O)O)NC(=O)[C@H](CCC(=O)O)NC(=O)[C@H](CCC(=O)O)NC(=O)[C@H](CCC(=O)O)NC(=O)[C@H](CCC(=O)O)NC(=O)[C@H](CCC(=O)O)NC(=O)CN1CCN(CC(=O)O)CCN(CC(=O)O)CCN(CC(=O)O)CC1)C(=O)O [^67Ga-DOTA-(L-Glu)14, metal not drawn]
Given back: 10.9

###

Experiment: Biodistribution experiments in normal mice after i.v. injection
Type: in vivo
Conditions: male, ddY, mouse, in vivo, iv, total radioactivity, mice, i.v., 10 min after injection, mean (SD); read-out: Biodistribution of radioactivity, Brain
Where a SMILES comes first, the peptide text is derived from it. [ ]: non-standard residue; d: D form. The star is where a group is joined. DOTA = O=C(O)CN1CCN(CC(=O)O)CCN(CC(=O)*)CCN(CC(=O)O)CC1
Property Label: tissue uptake dose at 10 min (%ID)
The figure you give is taken to be in %ID; do not add the unit.

Asked: What value of tissue uptake dose at 10 min has been recorded for this entry: O=C(O)C[C@@H](NC(=O)[C@@H](CC(=O)O)NC(=O)[C@@H](CC(=O)O)NC(=O)[C@@H](CC(=O)O)NC(=O)[C@@H](CC(=O)O)NC(=O)[C@@H](CC(=O)O)NC(=O)[C@@H](CC(=O)O)NC(=O)[C@@H](CC(=O)O)NC(=O)[C@@H](CC(=O)O)NC(=O)[C@@H](CC(=O)O)NC(=O)[C@@H](CC(=O)O)NC(=O)CN1CCN(CC(=O)O)CCN(CC(=O)O)CCN(CC(=O)O)CC1)C(=O)O [^67Ga-DOTA-(D-Asp)11, metal not drawn] ({DOTA}-[dD][dD][dD][dD][dD][dD][dD][dD][dD][dD][dD]-OH)
Given back: 0.05

###

Test: Biodistribution experiments in normal mice after i.v. injection
Type: in vivo
Conditions: male, ddY, mouse, in vivo, iv, total radioactivity, Biodistribution of radioactivity, Bone (Femur)
Where a SMILES comes first, the peptide text is derived from it. [ ]: non-standard residue; d: D form. The star is where a group is joined. DOTA = O=C(O)CN1CCN(CC(=O)O)CCN(CC(=O)*)CCN(CC(=O)O)CC1
Property Label: tissue uptake dose at 10 min (%ID)
The figure you give is taken to be in %ID; do not add the unit.

1) O=C(O)C[C@@H](NC(=O)[C@@H](CC(=O)O)NC(=O)[C@@H](CC(=O)O)NC(=O)[C@@H](CC(=O)O)NC(=O)[C@@H](CC(=O)O)NC(=O)[C@@H](CC(=O)O)NC(=O)[C@@H](CC(=O)O)NC(=O)[C@@H](CC(=O)O)NC(=O)CN1CCN(CC(=O)O)CCN(CC(=O)O)CCN(CC(=O)O)CC1)C(=O)O [^67Ga-DOTA-(D-Asp)8, metal not drawn] ({DOTA}-[dD][dD][dD][dD][dD][dD][dD][dD]-OH)
9.86

Asked: What value of tissue uptake dose at 10 min has been recorded for this entry: O=C(O)C[C@@H](NC(=O)[C@@H](CC(=O)O)NC(=O)[C@@H](CC(=O)O)NC(=O)[C@@H](CC(=O)O)NC(=O)[C@@H](CC(=O)O)NC(=O)CN1CCN(CC(=O)O)CCN(CC(=O)O)CCN(CC(=O)O)CC1)C(=O)O [^67Ga-DOTA-(D-Asp)5, metal not drawn] ({DOTA}-[dD][dD][dD][dD][dD]-OH)
Given back: 6.78

Asked: What value of tissue uptake dose at 10 min has been recorded for this entry: O=C(O)C[C@@H](NC(=O)[C@@H](CC(=O)O)NC(=O)CN1CCN(CC(=O)O)CCN(CC(=O)O)CCN(CC(=O)O)CC1)C(=O)O [^67Ga-DOTA-(D-Asp)2, metal not drawn] ({DOTA}-[dD]-[dD]-OH)
Given back: 1.57

Asked: What value of tissue uptake dose at 10 min has been recorded for this entry: O=C(O)CC[C@@H](NC(=O)[C@@H](CCC(=O)O)NC(=O)[C@@H](CCC(=O)O)NC(=O)[C@@H](CCC(=O)O)NC(=O)[C@@H](CCC(=O)O)NC(=O)[C@@H](CCC(=O)O)NC(=O)[C@@H](CCC(=O)O)NC(=O)[C@@H](CCC(=O)O)NC(=O)[C@@H](CCC(=O)O)NC(=O)[C@@H](CCC(=O)O)NC(=O)[C@@H](CCC(=O)O)NC(=O)[C@@H](CCC(=O)O)NC(=O)[C@@H](CCC(=O)O)NC(=O)[C@@H](CCC(=O)O)NC(=O)CN1CCN(CC(=O)O)CCN(CC(=O)O)CCN(CC(=O)O)CC1)C(=O)O [^67Ga-DOTA-(D-Glu)14, metal not drawn]
Given back: 11

###

Assay: Biodistribution experiments in normal mice after i.v. injection
Type: in vivo
Settings: male, ddY, mouse, in vivo, iv, total radioactivity, Biodistribution of radioactivity, Kidney
Where a SMILES comes first, the peptide text is derived from it. [ ]: non-standard residue; d: D form. The star is where a group is joined. DOTA = O=C(O)CN1CCN(CC(=O)O)CCN(CC(=O)*)CCN(CC(=O)O)CC1
Rule for this label: TRUE means tissue uptake dose at 1 h is less than 10 %ID; FALSE means tissue uptake dose at 1 h is at least 10 %ID.

Past entries and their recorded results:
1. O=C(O)C[C@@H](NC(=O)[C@@H](CC(=O)O)NC(=O)[C@@H](CC(=O)O)NC(=O)[C@@H](CC(=O)O)NC(=O)[C@@H](CC(=O)O)NC(=O)CN1CCN(CC(=O)O)CCN(CC(=O)O)CCN(CC(=O)O)CC1)C(=O)O [^67Ga-DOTA-(D-Asp)5, metal not drawn] ({DOTA}-[dD][dD][dD][dD][dD]-OH)
TRUE
2. O=C(O)C[C@@H](NC(=O)[C@@H](CC(=O)O)NC(=O)[C@@H](CC(=O)O)NC(=O)[C@@H](CC(=O)O)NC(=O)[C@@H](CC(=O)O)NC(=O)[C@@H](CC(=O)O)NC(=O)[C@@H](CC(=O)O)NC(=O)[C@@H](CC(=O)O)NC(=O)CN1CCN(CC(=O)O)CCN(CC(=O)O)CCN(CC(=O)O)CC1)C(=O)O [^67Ga-DOTA-(D-Asp)8, metal not drawn] ({DOTA}-[dD][dD][dD][dD][dD][dD][dD][dD]-OH)
TRUE
3. O=C(O)C[C@@H](NC(=O)[C@@H](CC(=O)O)NC(=O)CN1CCN(CC(=O)O)CCN(CC(=O)O)CCN(CC(=O)O)CC1)C(=O)O [^67Ga-DOTA-(D-Asp)2, metal not drawn] ({DOTA}-[dD]-[dD]-OH)
TRUE
4. O=C(O)CC[C@@H](NC(=O)[C@@H](CCC(=O)O)NC(=O)[C@@H](CCC(=O)O)NC(=O)[C@@H](CCC(=O)O)NC(=O)[C@@H](CCC(=O)O)NC(=O)[C@@H](CCC(=O)O)NC(=O)[C@@H](CCC(=O)O)NC(=O)[C@@H](CCC(=O)O)NC(=O)[C@@H](CCC(=O)O)NC(=O)[C@@H](CCC(=O)O)NC(=O)[C@@H](CCC(=O)O)NC(=O)[C@@H](CCC(=O)O)NC(=O)[C@@H](CCC(=O)O)NC(=O)[C@@H](CCC(=O)O)NC(=O)CN1CCN(CC(=O)O)CCN(CC(=O)O)CCN(CC(=O)O)CC1)C(=O)O [^67Ga-DOTA-(D-Glu)14, metal not drawn]
FALSE

Asked: tissue uptake dose at 1 h strictly < 10 %ID for this molecule? O=C(O)CC[C@H](NC(=O)[C@H](CCC(=O)O)NC(=O)[C@H](CCC(=O)O)NC(=O)[C@H](CCC(=O)O)NC(=O)[C@H](CCC(=O)O)NC(=O)[C@H](CCC(=O)O)NC(=O)[C@H](CCC(=O)O)NC(=O)[C@H](CCC(=O)O)NC(=O)[C@H](CCC(=O)O)NC(=O)[C@H](CCC(=O)O)NC(=O)[C@H](CCC(=O)O)NC(=O)[C@H](CCC(=O)O)NC(=O)[C@H](CCC(=O)O)NC(=O)[C@H](CCC(=O)O)NC(=O)CN1CCN(CC(=O)O)CCN(CC(=O)O)CCN(CC(=O)O)CC1)C(=O)O [^67Ga-DOTA-(L-Glu)14, metal not drawn]
Given back: FALSE
